test system: UO-31 renal; assay: NCI tumour cell line growth inhibition, 48 h
EXPERIMENTAL ENDPOINT: TGI

Please look at the items below and tell me TGI for each one, in order.
1. CC1(CCOCc2ccccc2)NC(=O)NC1=O (stereo not drawn)
2. O=C(Nc1nc(=S)c2c(ncn2CCOC(=O)c2ccccc2)[nH]1)c1ccccc1

1: > 100 µM; 2: > 100 µM

I am curious: what TGI value has been reported for Cc1ccc(NC(=O)CC2CC2)cc1-c1ccc(C(=O)NCC2CC2)cc1 ?
> 25 µM

---

system: SF-268 CNS; assay: NCI tumour cell line growth inhibition, 48 h
EXPERIMENTAL ENDPOINT: TGI

Example results:
{"RECORD SMILES": "CSc1nc(Nc2cccc(C(F)(F)F)c2)c2c(N)nn(C)c2n1", "TESTED ON": "SF-268 CNS", "TGI": "> 100 µM"}
{"RECORD SMILES": "COC1(OC)C(N(C)C)=C(Cl)C(=O)/C1=C/C=O", "TESTED ON": "SF-268 CNS", "TGI": "> 100 µM"}
{"RECORD SMILES": "Cn1c(=O)c(-c2ccccc2)c(N=[N+]=[N-])c2ccccc21", "TESTED ON": "SF-268 CNS", "TGI": "> 100 µM"}

Please look at the items below and tell me TGI for each one, in order.
1. CN=C(N=Nc1c(O)[nH]c2ccccc12)SCC(=O)c1ccc(Br)cc1
2. Cc1c2c(C#N)nccc2c(C)c2c1c1ccccc1n2Cc1ccccc1

1: > 48.7 µM; 2: > 100 µM

I am curious: what TGI value has been reported for Cc1ccc(NC(=O)CC2CC2)cc1-c1ccc(C(=O)NCC2CC2)cc1 ?
> 25 µM
